Would you kindly list pEC50 for each of these compounds?
Tested on: ATH-8 cell line
PROTOCOL DETAILS: Concentration required to inhibit the cytopathic effect of HIV-1 on ATH8 cells
Assay type: functional, Human immunodeficiency virus 1
CONDITION CONTEXT: Homo sapiens, read-out: ED50 (the source's name)
pEC50: −log10 of the molar value.

Problem: For the compound shown here, OC[C@@H]1CC[C@H](n2cnc3c(Cl)nc(Cl)nc32)O1 , give the reported pEC50.
Solution: < 3.70

Problem: For the compound shown here, O=c1[nH]c(=O)c2ncn([C@H]3CC[C@@H](CO)O3)c2[nH]1 , give the reported pEC50.
Solution: < 3.70

Problem: For the compound shown here, Nc1ncc2ncn([C@H]3CC[C@@H](CO)O3)c2n1 , give the reported pEC50.
Solution: < 3.70
